Hello, the source for this data is ChEMBL document CHEMBL1201862, in case you need it.

Would you kindly list GI50 for each of these compounds?
Tested on: IGROV-1
EXPERIMENTAL_PROTOCOL: NCI tumour cell line growth inhibition, 48 h
Active and inactive are the calls of the source. Cut-off read from the data, not from the text of the source: active = GI50 up to about 1.1 µM and inactive = higher.

What does the record list as GI50 for O=c1c2c(no[n+]2[O-])c2ccccc2n1-c1ccccc1 ? 3.75 µM (inactive)

Record: Cc1cc2c(c3nocc13)C(=O)c1ccccc1C2=O > 100 µM (inactive)

Record: O=S(=O)(c1ccccc1)n1cnc(CCc2ccccc2)n1 > 100 µM (inactive)

Record: C[n+]1c2ccccc2c2/c(=C\C#N)c3ccccc3n21 3 µM (inactive)

Record: COc1cc(Nc2nc3ccccc3nc2C(C)C)cc(OC)c1OC > 100 µM (inactive)

Record: ClCCCCOC1CCCCO1 (configuration not stated) > 100 µM (inactive)

Record: COc1cc(/C=C2\N=C(c3ccccc3)N(c3nc4ccc(Sc5ccccc5)cc4[nH]3)C2=O)cc(OC)c1OC 45.4 µM (inactive)

Record: C=CC[C@@]12CCC(=O)C=C1CCCC2=O > 100 µM (inactive)

Record: NCCOCC(N)C(=O)O (configuration not stated) > 100 µM (inactive)

Record: [O-][S+](CCc1ccccc1)Nc1ccccc1 (configuration not stated) > 100 µM (inactive)

Record: COc1ccc(CCN2COc3ccc4ccc(=O)oc4c3C2)cc1OC > 100 µM (inactive)

Record: O=c1[nH]c2ccc(CC(=S)N3CCN(c4ccccc4)CC3)cc2s1 9.16 µM (inactive)

Record: Cn1c(CC(O)c2nc3ccccc3n2C)nc2ccccc21 (configuration not stated) > 17.4 µM (inactive)

Record: COc1cccc(N2C(=O)C3c4[nH]c5ccccc5c4C4CCCC4C3C2=O)c1 (configuration not stated) 6.71 µM (inactive)

Record: c1ccc(C2=NN=C3C(c4ccccc4)=Nc4ccccc4N3C2)cc1 26.5 µM (inactive)

Record: Cc1cc(=O)cc2sc3cc(Cl)ccc3nc1-2 12.1 µM (inactive)

Record: CC1CC(N)=C(C#N)C1(C#N)C#N (configuration not stated) > 100 µM (inactive)

Record: CC1(O)CC(C(F)(F)F)(C(F)(F)F)OC1=O (configuration not stated) > 10 µM (inactive)

Record: Cc1cnc2cc(Cl)ccc2c1NCCN(CC(C)C)CC(C)C > 100 µM (inactive)

Record: N#Cc1ccc(C2Oc3ccc(Cl)cc3C=C2[N+](=O)[O-])cc1 (configuration not stated) 1.61 µM (inactive)

Record: O=C(CN(c1ccc(S(=O)(=O)O)cc1)c1ccc(S(=O)(=O)O)cc1)Nn1cnc2ccc(S(=O)(=O)N(c3ccc(S(=O)(=O)O)cc3)c3ccc(S(=O)(=O)O)cc3)cc2c1=O 61.2 µM (inactive)

Record: COc1cc(/C=C2\C[C@H]3[C@@H]4CC=C5C[C@@H](N6CCCC6)CC[C@]5(C)[C@H]4CC[C@]3(C)[C@H]2O)cc(OC)c1OC 15.9 µM (inactive)

Record: CC(=O)C(C(C)=O)[C@@H]1OC(C)(C)O[C@@H]1[C@H]1COC(C)(C)O1 35.6 µM (inactive)

Record: O=C1C(Cl)=C(Nc2ccc(S(=O)(=O)O)cc2)C(=O)c2ccccc21 20 µM (inactive)

Record: O=CC(O)C(O)C(O)C(O)COC(=O)NCCCCC(=O)C(F)(F)C(F)(F)C(F)(F)C(F)(F)C(F)(F)C(F)(F)C(F)(F)F (configuration not stated) 29.7 µM (inactive)

Record: CCN(CC)CCCNc1nncc2cc3c([nH]c4ccccc43)c(C)c12 3.12 µM (inactive)

Record: CCN1CCC(O)(/C=C/c2ccc(OC)cc2)C(C(=O)/C=C/c2ccc(OC)cc2)C1 (configuration not stated) 13.7 µM (inactive)

Record: Cc1nc2c(n1Cc1ccc(Cl)cc1)C(=O)c1ccccc1C2=O > 75 µM (inactive)

Record: Oc1cc2c3c(c1)c1cc4c(cc1c[n+]3CC2)OCO4 2.4 µM (inactive)

Record: Cc1noc2cccc(OCc3ccccc3)c12 60.1 µM (inactive)

Record: COc1nncc2[nH]c(-c3ccccc3)cc12 > 100 µM (inactive)

Record: C/C(CC(=O)Nc1ccc(Cl)c(Cl)c1)=N/NC(=O)C[N+](C)(C)C > 100 µM (inactive)

Record: CC12CC(c3ccccc3O1)C(C(=O)Nc1ccc(F)cc1)C(=O)N2 (configuration not stated) 49.1 µM (inactive)

Record: COC(=O)C(CCCN1C(=O)c2ccccc2C1=O)C(=O)OC > 100 µM (inactive)

Record: CCOC(=O)c1c2ccccc2n2c(N)c(C(N)=O)nnc12 1.33 µM (inactive)

Record: COc1ccc(C2C3=C(COC3=O)OC(C)(C)Oc3cc4c(cc32)OCO4)cc1 (configuration not stated) 29.3 µM (inactive)

Record: O=[N+]([O-])c1ccc2nc(/C(=N/Nc3ccccc3)C(O)c3ccc(Cl)cc3Cl)c(O)nc2c1 (configuration not stated) > 100 µM (inactive)

Record: O=c1[nH]c2cc([N+](=O)[O-])c(N/N=C/c3ccc(Cl)cc3Cl)c([N+](=O)[O-])c2[nH]1 25.1 µM (inactive)

Record: COC(=O)c1ccc(Nc2nc3[nH]cnc3c(=O)[nH]2)cc1 > 100 µM (inactive)

Record: CCNC(=S)/N=c1\sc(NCC)nc2sc3c(c12)CCN(N1CCc2c(sc4nc(NCC)s/c(=N\C(=S)NCC)c24)C1)C3 39.8 µM (inactive)

Record: N=C(N)NS(=O)(=O)c1ccc(Nc2c3ccccc3nc3c(C(=O)Nc4ccc(S(N)(=O)=O)cc4)cccc23)cc1 > 100 µM (inactive)

Record: C/C=C(\CCOS(=O)(=O)c1ccc(C)cc1)[Si](C)(C)C > 100 µM (inactive)

* * *

Test system: M14
EXPERIMENTAL_PROTOCOL: NCI tumour cell line growth inhibition, 48 h
Activity calls are given as the source filed them. Cut-off read from the data, not from the text of the source: active = GI50 up to about 1.1 µM and inactive = higher.
METRIC: GI50

Could you share what GI50 was measured for CCN1CCC(O)(/C=C/c2ccc(OC)cc2)C(C(=O)/C=C/c2ccc(OC)cc2)C1 (stereo unspecified) , tested on M14? 15.5 µM (inactive)

Record: COc1cc2c(cc1O)CN1CCC23C=C[C@@H](O)CC13 (stereo partly specified) 41 µM (inactive)

Record: CN(C)C=O.O=C(Nc1nnn[nH]1)c1nc(O)cc(-c2ccccc2)n1 > 100 µM (inactive)

Record: CCOC(=O)/C=C(/C(=O)OCC)n1ccc(=O)n(/C(=C/C(=O)OCC)C(=O)OCC)c1=O 4.98 µM (inactive)

Record: COc1cc(N(C)C)c(OC)cc1C=C1C=CC=C1 > 100 µM (inactive)

Record: CCOC(=O)c1ccc(-c2onc(C)c2Br)[nH]1 62.7 µM (inactive)

Record: Cc1ccc(S(=O)(=O)SC(C)(C)C)cc1 31.6 µM (inactive)

Record: CCOC(=O)/C(=C\NC(N)=S)C(=O)c1ccccc1 > 100 µM (inactive)

Record: COC(=O)/C=C\C(C#N)(C#N)/N=C/c1ccc(Br)cc1 7.26 µM (inactive)

Record: Cc1ccccc1NC(=O)c1cc2cc(/N=N/c3ccccc3C(=O)O)ccc2oc1=O 16.7 µM (inactive)

Record: OCC1NC(CO)C(O)C1O (stereo unspecified) > 100 µM (inactive)

* * *

Test system: SN12C
EXPERIMENTAL_PROTOCOL: NCI tumour cell line growth inhibition, 48 h
The source made the active and inactive calls. Rule as the data show it: active = GI50 up to about 1.1 µM and inactive = higher.
METRIC: GI50

What does the record list as GI50 for CCCCCCCCCCCCCC(=O)OC1C(CO)OC(=O)C1O (stereo unspecified) ? > 100 µM (inactive)

Record: O=C1/C(=N\O)S(=O)(=O)c2ccccc21 > 100 µM (inactive)

Record: O=C(CC1(O)C(=O)Nc2c(Cl)cc(Cl)cc21)c1ccc([N+](=O)[O-])cc1 (stereo unspecified) > 45.7 µM (inactive)

Record: COc1ccc(C(=O)CC(c2ccccc2)[C@H]2C(c3ccc(OC)cc3)=Nc3c(nc(SC)n(C)c3=O)NC2c2ccccc2)cc1 (stereo partly specified) > 100 µM (inactive)

Record: O=c1cc2ccccc2nn1-c1ccccc1Cl > 100 µM (inactive)

Record: CCOC(OC1=C(C#N)CCCC1)C(C)[Se]c1ccccc1 (stereo unspecified) 25.2 µM (inactive)

Record: COc1nc(C)nc2c1ncn2Cc1ccccc1 > 100 µM (inactive)

Record: Oc1ccc(-c2c3ccccc3c(-c3ccc(OCCBr)cc3)c3ccccc23)cc1 22.1 µM (inactive)

Record: Cc1cc([N+](=O)[O-])ccc1Nc1cccc(Cl)c1C 16.7 µM (inactive)

Record: COC(=O)C(CC(C)C)NC(=O)C(NC(=O)c1ccc(-c2ccc(Cl)cc2Cl)o1)C(C)C (stereo unspecified) 18 µM (inactive)

Record: CC(=O)c1cc(S(=O)(=O)c2ccc(O)c(C(C)=O)c2)ccc1O > 100 µM (inactive)

Record: CCN(CC)CCCNc1nncc2cc3c([nH]c4ccccc43)c(C)c12 6.24 µM (inactive)

Record: CCNC(=S)/N=c1\sc(NCC)nc2sc3c(c12)CCN(N1CCc2c(sc4nc(NCC)s/c(=N\C(=S)NCC)c24)C1)C3 > 100 µM (inactive)

Record: Cn1c(CC(O)c2nc3ccccc3n2C)nc2ccccc21 (stereo unspecified) > 36 µM (inactive)

Record: C=C(C(=O)OC)[C@H]1CC/C(C)=C/CC/C(C)=C/CC[C@@]2(C)O[C@@H]2C1 16.9 µM (inactive)

Record: CC1=C/C(=C(/c2ccc(O)c(C)c2)c2ccccc2C(=O)O)C=CC1=O 19.6 µM (inactive)

Record: CC(=O)OCC1OC(n2c3c(c(-c4ccco4)c(C#N)c2=S)CCCC3)C(OC(C)=O)C(OC(C)=O)C1OC(C)=O (stereo unspecified) > 31.6 µM (inactive)

Record: CCOC(=O)/C(=C\NC(N)=S)C(=O)c1ccccc1 > 100 µM (inactive)

Record: C[n+]1c2ccccc2c2/c(=C\C#N)c3ccccc3n21 3.42 µM (inactive)

Record: COC(=O)/C=C\C(C#N)(C#N)/N=C/c1ccc(Br)cc1 5.42 µM (inactive)

Record: Cc1cc2c([nH]c3ccccc32)c2c1OC(C)(C)C1C3CC(C)(C)Oc4c(C)cc5c6ccccc6n(c5c43)C21 (stereo unspecified) > 100 µM (inactive)
